The values you see were collected from ChEMBL document CHEMBL3352339.

Collected zone of inhibition at 50 µg/mL values appear next to each entry.
system: Xanthomonas oryzae; experiment: Antibacterial activity against Xanthomonas oryzae at 50 ug/mL incubated for 24 hrs by agar well diffusion method; assay type: functional; conditions: read-out: IZ
Starred links: 1 amine or outer side, 2 acyl side, 3 side chain; linkers in the order of their positions; H or OH if unused. Residues, ends and D or L forms follow the SMILES beside them. *: point of attachment. NH(4-MeO-phenyl) = COc1ccc(N*)cc1; X1 = c1ccc2c(N3CCN(*)CC3)nsc2c1; NH(4-F-phenyl) = Fc1ccc(N*)cc1; NH(2-F-phenyl) = Fc1ccccc1N*; NH(3-MeOPh) = COc1cccc(N*)c1; X4 = COc1cccc(NC(=S)*)c1; X2 = Fc1ccc(NC(=S)*)cc1; X5 = COc1ccccc1NC(=S)*; Boc = CC(C)(C)OC(=O)*; CO = O=C([*:1])[*:2]; X6 = Fc1cccc(N*)c1
Note: unit mm is implicit; provide only the numeric part.

COc1ccccc1NC(=S)NCC(=O)N[C@H](C(=O)NCC(=O)N[C@H](C(=O)N1CCC[C@H]1C(=O)N1CCN(c2nsc3ccccc23)CC1)C(C)C)C(C)C (X5-GVGVP-X1): 19

Lab request: please report zone of inhibition at 50 µg/mL under test system Xanthomonas oryzae for COc1cccc(NC(=O)NCC(=O)N[C@H](C(=O)NCC(=O)N[C@H](C(=O)N2CCC[C@H]2C(=O)N2CCN(c3nsc4ccccc34)CC2)C(C)C)C(C)C)c1 ({NH(3-MeOPh)-CO}-GVGVP-X1)
13

Param item: COc1cccc(NC(=S)NCC(=O)N[C@H](C(=O)NCC(=O)N[C@H](C(=O)N2CCC[C@H]2C(=O)N2CCN(c3nsc4ccccc34)CC2)C(C)C)C(C)C)c1 (X4-GVGVP-X1)
16

Param item: CC(C)[C@H](NC(=O)CNC(=O)[C@H](Cc1ccccc1)NC(=O)CNC(=O)Nc1ccc(F)cc1)C(=O)N1CCC[C@H]1C(=O)N1CCN(c2nsc3ccccc23)CC1 ({NH(4-F-phenyl)-CO}-GFGVP-X1)
31

Param item: CC(C)[C@H](NC(=O)CNC(=O)[C@H](Cc1ccccc1)NC(=O)CNC(=S)Nc1ccc(F)cc1)C(=O)N1CCC[C@H]1C(=O)N1CCN(c2nsc3ccccc23)CC1 (X2-GFGVP-X1)
34

Param item: CC(C)[C@H](NC(=O)CNC(=O)[C@H](Cc1ccccc1)NC(=O)CNC(=O)Nc1cccc(F)c1)C(=O)N1CCC[C@H]1C(=O)N1CCN(c2nsc3ccccc23)CC1 ({X6-CO}-GFGVP-X1)
26

Param item: COc1ccc(NC(=O)NCC(=O)N[C@@H](Cc2ccccc2)C(=O)NCC(=O)N[C@H](C(=O)N2CCC[C@H]2C(=O)N2CCN(c3nsc4ccccc34)CC2)C(C)C)cc1 ({NH(4-MeO-phenyl)-CO}-GFGVP-X1)
23

Param item: COc1ccccc1NC(=S)NCC(=O)N[C@@H](Cc1ccccc1)C(=O)NCC(=O)N[C@H](C(=O)N1CCC[C@H]1C(=O)N1CCN(c2nsc3ccccc23)CC1)C(C)C (X5-GFGVP-X1)
22

Param item: CC(C)[C@H](NC(=O)CNC(=O)Nc1ccccc1F)C(=O)NCC(=O)N[C@H](C(=O)N1CCC[C@H]1C(=O)N1CCN(c2nsc3ccccc23)CC1)C(C)C ({NH(2-F-phenyl)-CO}-GVGVP-X1)
23

Param item: CC(C)[C@H](NC(=O)CNC(=O)OC(C)(C)C)C(=O)NCC(=O)N[C@H](C(=O)N1CCC[C@H]1C(=O)N1CCN(c2nsc3ccccc23)CC1)C(C)C (Boc-GVGVP-X1)
4
